The reported measurements were obtained from patent US11149056B2.

Measured On: NMDA receptor 2B (Homo sapiens (Human), UniProt Q05586+Q13224)
Sequence (Q13224 27-1484, other chains not shown): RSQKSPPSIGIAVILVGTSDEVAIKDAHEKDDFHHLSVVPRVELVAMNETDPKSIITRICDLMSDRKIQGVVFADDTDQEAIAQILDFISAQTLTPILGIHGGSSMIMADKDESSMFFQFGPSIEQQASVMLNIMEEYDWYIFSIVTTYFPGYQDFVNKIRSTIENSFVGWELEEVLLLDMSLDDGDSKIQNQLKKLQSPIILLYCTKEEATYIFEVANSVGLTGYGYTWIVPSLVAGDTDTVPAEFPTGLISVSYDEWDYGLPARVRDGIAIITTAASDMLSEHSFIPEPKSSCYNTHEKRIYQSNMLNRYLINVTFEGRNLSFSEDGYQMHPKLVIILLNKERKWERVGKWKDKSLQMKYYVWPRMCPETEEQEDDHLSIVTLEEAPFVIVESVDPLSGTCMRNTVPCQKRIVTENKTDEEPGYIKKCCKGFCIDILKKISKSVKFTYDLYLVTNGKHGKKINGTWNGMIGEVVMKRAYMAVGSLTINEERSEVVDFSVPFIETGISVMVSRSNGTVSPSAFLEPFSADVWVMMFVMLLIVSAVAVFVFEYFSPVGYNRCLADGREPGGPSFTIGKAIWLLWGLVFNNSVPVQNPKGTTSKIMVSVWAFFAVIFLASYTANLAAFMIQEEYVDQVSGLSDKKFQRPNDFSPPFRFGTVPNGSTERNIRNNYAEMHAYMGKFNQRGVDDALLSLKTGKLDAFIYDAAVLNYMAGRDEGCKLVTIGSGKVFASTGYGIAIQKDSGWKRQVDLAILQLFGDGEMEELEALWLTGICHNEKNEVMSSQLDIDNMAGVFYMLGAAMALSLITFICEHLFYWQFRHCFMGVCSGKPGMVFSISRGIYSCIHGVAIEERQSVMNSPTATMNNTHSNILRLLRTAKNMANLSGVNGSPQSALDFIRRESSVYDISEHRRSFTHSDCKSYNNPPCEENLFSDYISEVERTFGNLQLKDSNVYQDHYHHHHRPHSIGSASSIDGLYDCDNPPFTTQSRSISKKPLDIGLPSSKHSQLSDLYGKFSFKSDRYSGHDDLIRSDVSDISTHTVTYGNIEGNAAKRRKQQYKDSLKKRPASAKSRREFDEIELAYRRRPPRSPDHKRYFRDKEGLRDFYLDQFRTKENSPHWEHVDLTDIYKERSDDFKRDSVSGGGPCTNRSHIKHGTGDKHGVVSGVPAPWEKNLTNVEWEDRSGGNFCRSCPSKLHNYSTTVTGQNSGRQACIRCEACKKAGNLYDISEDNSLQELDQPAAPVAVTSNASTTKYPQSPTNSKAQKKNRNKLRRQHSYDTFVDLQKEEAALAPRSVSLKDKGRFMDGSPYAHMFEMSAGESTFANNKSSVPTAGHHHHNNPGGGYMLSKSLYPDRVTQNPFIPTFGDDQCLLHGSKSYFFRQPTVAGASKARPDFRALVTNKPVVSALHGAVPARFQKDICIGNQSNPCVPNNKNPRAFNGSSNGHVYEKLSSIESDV
Procedure Details: Automated patch-clamp (QPatch HTX), NMDA receptor 2B subtype
Format: cell-based
Experimental Context: read-out: AVG_ EMAX 2B %
Test Readout: Emax (%)
The reply should be a number in %, with the unit left off.

Molecule	Measured On	Unit Spec	Assay Value
CC[C@]1(O)CC[C@@]2(C)C(=C[C@@H](C)[C@H]3[C@@H]4CC[C@H]([C@H](C)CCC(C)(C)O)[C@@]4(C)CC[C@@H]32)C1 [Compound U6408]	NMDA receptor 2B (Homo sapiens (Human), UniProt Q05586+Q13224)	%	447

Exam item: State the recorded Emax for this entry: C[C@@H]1C=C2C[C@@](C)(O)CC[C@]2(C)[C@H]2CC[C@]3(C)[C@@H]([C@H](C)CC[C@](C)(O)C(F)(F)F)CC[C@H]3[C@H]12 [Compound U6472]
Marked response: 231

Exam item: State the recorded Emax for this entry: CC[C@]1(O)CC[C@@]2(C)[C@@H](CC(=O)[C@@H]3[C@@H]2CC[C@]2(C)[C@@H]([C@H](C)CCC(C)(C)O)CC[C@@H]32)C1 [Compound U6410]
Marked response: 44

Exam item: State the recorded Emax for this entry: CC[C@]1(O)CC[C@@]2(C)C(=C[C@H](O)[C@H]3[C@@H]4CC[C@H]([C@H](C)CCC(C)(C)O)[C@@]4(C)CC[C@@H]32)C1 [Compound U6429]
Marked response: 109

Exam item: State the recorded Emax for this entry: C[C@@H]1C=C2C[C@@](C)(O)CC[C@]2(C)[C@H]2CC[C@]3(C)[C@@H]([C@H](C)CC4(O)CCC(C)(C)CC4)CC[C@H]3[C@H]12 [Compound U6477]
Marked response: 86

Exam item: State the recorded Emax for this entry: C[C@H](CC1(O)CCC(C)(C)CC1)[C@H]1CC[C@H]2[C@@H]3[C@@H](C)C=C4C[C@@](C)(O)CC[C@]4(C)[C@H]3CC[C@]12C [Compound U6478]
Marked response: 127

Exam item: State the recorded Emax for this entry: CC[C@]1(O)CC[C@@]2(C)[C@@H](C[C@H](O)[C@@H]3[C@@H]2CC[C@]2(C)[C@@H]([C@H](C)CCC(C)(C)O)CC[C@@H]32)C1 [Compound U6479]
Marked response: 92

Exam item: State the recorded Emax for this entry: C[C@H](CC[C@](C)(O)C(F)(F)F)[C@H]1CC[C@H]2[C@@H]3[C@@H](C)C=C4C[C@@](C)(O)CC[C@]4(C)[C@H]3CC[C@]12C [Compound U6473]
Marked response: 47

Exam item: State the recorded Emax for this entry: CC[C@]1(O)CC[C@@]2(C)C(=CC(=O)[C@H]3C4CC[C@H]([C@H](C)CCC(C)(C)O)[C@@]4(C)CC[C@@H]32)C1 (stereo partly shown) [Compound U6461]
Marked response: 53

Exam item: State the recorded Emax for this entry: CC[C@]1(O)CC[C@@]2(C)C(=C[C@](C)(O)[C@H]3[C@@H]4CC[C@H]([C@H](C)CCC(C)(C)O)[C@@]4(C)CC[C@@H]32)C1 [Compound U6437]
Marked response: 213
